# Tested on: M14 melanoma
# TEST DESCRIPTION: NCI-60 one-dose screen, 48 h (100 = growth as untreated, 0 = no growth, -100 = all killed)
# CONDITIONS: 10 µM unless noted
# Method: Growth inhibition of the M14 human tumor cell line is measured as a screen for anti-cancer activity. Cells are grown in 96 well plates and exposed to the test compound for 48 hours. Compounds are tested at a single concentration, which is 10^-5 M for most compounds. The reported endpoint is percent growth (GI% or GIPRCNT), where numbers from 0 - 100% represent growth inhibition, and numbers from -100% - 0 represent cell death. For example, a value of 40 represents 60% growth inhibition. […]
This is part of a sample that, as a whole, favours compounds with a hit. Of some 83,000 tested, about 20% had one in any assay. Activity calls are given as the source filed them. The calls were made as follows: active = growth percent below 10; inactive = the rest.
Can you tell me growth for the items I'm about to list?

Given the entry COc1ccc(/C=c2\sc3n(c2=O)C2C(NN=3)N(C)C(=O)N2C)cc1 (stereo unspecified) , what growth was observed with M14 melanoma?
15.4% (inactive)

Another compound: O=C1NC(Cc2c[nH]c3ccccc23)C(=O)N1Cc1ccc(Cl)cc1 (stereo unspecified)
110% (inactive)

`Nc1c(C(=O)Nc2ccccc2)sc2nc3c(cc12)CCC3` ?
69.7% (inactive)

Field entry: `COc1ccc(-c2cn[nH]c2-c2cc(OC)c3c(c2)OCCO3)cc1`
10.6% (inactive)

Then what about the compound `Cc1ccc(S(=O)(=O)NCCCNc2nccc(-c3c(-c4ccccc4)nc4sccn34)n2)cc1` ?
30.5% (inactive)

Thanks! And `CC(=O)Nc1ccc2c(c1)/C(=C\C=C/c1ccc([N+](C)(C)C)cc1)c1ccccc1-2` ?
71.5% (inactive)

I'm hoping you can list growth for every compound here, please.
1. CCCC(C(=O)OCC)C(C)OC(=O)OCC (stereo unspecified)
2. Cc1c(C(=O)NCc2ccccc2)[n+](=O)c2cc(F)ccc2n1[O-]
3. NC(=O)NNC(=O)c1ccccc1
4. O=C(CC(O)c1ccncc1)c1ccccc1 (stereo unspecified)
5. O=[N+]([O-])c1cccc(-c2cc(-c3cc(Br)ccc3O)[nH]n2)c1

1. 97.6% (inactive)
2. 99.5% (inactive)
3. 107% (inactive)
4. 90.8% (inactive)
5. 35.6% (inactive)

---

# Test system: SW-620 colon
# TEST DESCRIPTION: NCI-60 one-dose screen, 48 h
# CONDITIONS: 10 µM unless noted
Compounds without any hit were thinned out: in the full panel of roughly 83,000, 20% have a hit. The source made the active and inactive calls. How the source made its calls: active means growth percent below 10; inactive means the rest.
The reply should name one outcome from class 1 for active, class 0 for inactive

These recorded examples may help you get a feel for the data.
Per the assay record, what outcome was assigned to Nc1c(C(=O)Nc2cccc(C(F)(F)F)c2)sc2nc3c(cc12)C(O)CCC3 (stereo not given) ?
class 0

What do you have for CCOC(=O)C1=C(CSC(=S)N(C2CCCCC2)C2CCCCC2)N(C)C(=O)NC1c1ccccc1 (stereo not given) ?
class 0

Record: `COc1ccc(Cn2c(SC)nc(=O)n(Cc3ccc(Cl)cc3)c2=O)cc1`
class 0

Please do the same for O=C(c1c[nH]c2ccccc12)C(Sc1nc2ccccc2c(=O)[nH]1)c1ccccc1 (stereo not given) as well.
class 0

# repeat for `COc1cccc2nc(Nc3ccc(NC(=O)c4ccc5ncccc5c4)cc3)ccc12`
class 0

Next:
What call does the record list for `CCc1cccc(C)c1NC(=O)c1sc2nc3c(cc2c1N)C(=O)CCC3` ?
class 0

Input COc1cc2c(cc1OC)C1(C)N(CC2)C(=O)OC1(C)C (stereo not given)
class 0

Lookup COC12CC(=O)C(C(C)=O)=C(O)C1(C)c1c(O)c(C)c(O)c(C(C)=O)c1O2 (stereo not given)
class 0

Next compound up: `COc1ccc(NC(=S)/N=c2\oc3c(OC)cccc3cc2-c2cc3ccccc3[nH]2)cc1`
class 0

Now this one: `COc1ccc(C(=O)/C=C/c2cccc([N+](=O)[O-])c2)c(OC)c1`
class 1
